Target: human TLR7 (Homo sapiens, UniProt Q9NYK1)
Test: HEK-Blue hTLR7 SEAP reporter gene agonism assay
Conditions: HEK-Blue hTLR7 cells, SEAP (Quanti-blue, 650 nm), 16-22 hours incubation
Task for the reader: assign each of the following compounds its reported pEC50.
Scale note: pEC50 = -log10(concentration in M).

pEC50 lookup needed for "CCCN[C@@H](C)c1ccc(Cn2ncc3nc(N)nc(N[C@H](C)CCC)c3c2=O)cc1" , thanks.
6.11

pEC50 lookup needed for "CCC[C@@H](C)Nc1nc(N)nc2cnn(Cc3ccc(OCCNC)nc3OC)c(=O)c12" , thanks.
6.22

pEC50 lookup needed for "CCC[C@@H](C)Nc1nc(N)nc2cnn(Cc3ccc(CN4CCN(C)CC4)cc3)c(=O)c12" , thanks.
6.04

pEC50 lookup needed for "CCC[C@@H](C)Nc1nc(N)nc2cnn(Cc3ccc(CN(C)CCO)cc3)c(=O)c12" , thanks.
6.02

pEC50 lookup needed for "CCC[C@@H](C)Nc1nc(N)nc2cnn(Cc3ccc(CN4CCCC4)cc3OC)c(=O)c12" , thanks.
6.20

pEC50 lookup needed for "CCC[C@@H](C)Nc1nc(N)nc2cnn(Cc3ccc(OCCNC)cc3)c(=O)c12" , thanks.
6.19

pEC50 lookup needed for "CCCN[C@H](C)c1ccc(Cn2ncc3nc(N)nc(N[C@H](C)CCC)c3c2=O)cc1" , thanks.
6.05

pEC50 lookup needed for "CCC[C@@H](C)Nc1nc(N)nc2cnn(Cc3ccc(C(=O)N4CCNCC4)cc3OC)c(=O)c12" , thanks.
6.20

pEC50 lookup needed for "CCCCNc1nc(N)nc2cnn(Cc3ccc(OCCNC)cc3)c(=O)c12" , thanks.
6.04

====

Task for the reader: assign each of the following molecules its reported pEC50.
Target: human TLR8 (Homo sapiens)
Sequence (Q9NR97 27-1041): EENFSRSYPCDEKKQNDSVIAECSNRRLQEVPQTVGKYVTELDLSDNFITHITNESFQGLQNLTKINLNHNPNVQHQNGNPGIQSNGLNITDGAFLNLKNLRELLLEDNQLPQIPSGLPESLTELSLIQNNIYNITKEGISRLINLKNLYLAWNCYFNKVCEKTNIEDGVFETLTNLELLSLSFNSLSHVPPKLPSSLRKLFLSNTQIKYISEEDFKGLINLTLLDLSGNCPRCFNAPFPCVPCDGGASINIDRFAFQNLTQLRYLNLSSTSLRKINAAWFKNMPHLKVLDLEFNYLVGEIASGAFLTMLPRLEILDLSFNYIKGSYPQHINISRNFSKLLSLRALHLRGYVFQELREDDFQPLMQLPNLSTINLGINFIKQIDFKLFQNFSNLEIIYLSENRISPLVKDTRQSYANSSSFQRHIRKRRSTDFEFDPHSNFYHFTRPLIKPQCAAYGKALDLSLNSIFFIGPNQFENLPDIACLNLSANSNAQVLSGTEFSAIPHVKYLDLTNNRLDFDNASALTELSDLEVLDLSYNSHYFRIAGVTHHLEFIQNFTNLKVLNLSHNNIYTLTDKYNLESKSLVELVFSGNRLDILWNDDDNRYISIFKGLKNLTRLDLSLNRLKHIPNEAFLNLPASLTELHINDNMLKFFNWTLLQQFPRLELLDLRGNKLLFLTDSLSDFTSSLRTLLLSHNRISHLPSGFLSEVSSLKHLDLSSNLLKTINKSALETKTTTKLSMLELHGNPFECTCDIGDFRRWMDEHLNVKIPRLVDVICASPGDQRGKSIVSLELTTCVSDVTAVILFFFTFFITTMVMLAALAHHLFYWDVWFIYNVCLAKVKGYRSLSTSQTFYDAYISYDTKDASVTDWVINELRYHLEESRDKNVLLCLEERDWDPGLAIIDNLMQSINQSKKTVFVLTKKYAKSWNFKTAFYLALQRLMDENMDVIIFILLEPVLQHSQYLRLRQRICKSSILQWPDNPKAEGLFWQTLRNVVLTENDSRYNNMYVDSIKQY
Experiment: HEK-Blue hTLR8 SEAP reporter gene agonism assay
Settings: HEK-Blue hTLR8 cells, SEAP (Quanti-blue, 650 nm), 16-22 hours incubation
Scale note: pEC50 = -log10(concentration in M).

pEC50 lookup needed for "CCCCNc1nc(N)nc2cnn(Cc3ccc(OCCNC)cc3)c(=O)c12" , thanks.
6.83

pEC50 lookup needed for "CCCCNc1nc(N)nc2cnn(Cc3ccc(CN4CC5CC(C4)N5)cc3)c(=O)c12" , thanks.
6.57

pEC50 lookup needed for "CCC[C@@H](CO)Nc1nc(N)nc2cnn(Cc3ccc(CN4CCCC4)cc3)c(=O)c12" , thanks.
8.05

pEC50 lookup needed for "CCCC[C@@H](CO)Nc1nc(N)nc2cnn(Cc3ccc(CN4CCCC4)cc3)c(=O)c12" , thanks.
7.29

pEC50 lookup needed for "CCCCNc1nc(N)nc2cnn(Cc3ccc(CN4CCCC4)c(OC)c3)c(=O)c12" , thanks.
6.43

pEC50 lookup needed for "CCC[C@@H](C)Nc1nc(N)nc2cnn(Cc3ccc(CN4CC5(COC5)C4)cc3OC)c(=O)c12" , thanks.
6.63

pEC50 lookup needed for "CCC[C@@H](C)Nc1nc(N)nc2cnn(Cc3ccc(C4CCNCC4)cc3)c(=O)c12" , thanks.
6.77

pEC50 lookup needed for "CCCCNc1nc(N)nc2cnn(Cc3ccc(CN4CCCC4)cc3F)c(=O)c12" , thanks.
6.49

pEC50 lookup needed for "CCC[C@@H](C)Nc1nc(N)nc2cnn(Cc3ccc(C(=O)N4CCN(C)CC4)cc3)c(=O)c12" , thanks.
6.72

pEC50 lookup needed for "CCCCNc1nc(N)nc2cnn(Cc3ccc(CN4CCCC4)nc3OC)c(=O)c12" , thanks.
6.45

pEC50 lookup needed for "CCCCNc1nc(N)nc2cnn(Cc3ccc(CN(CCC)CCO)cc3)c(=O)c12" , thanks.
6.41

pEC50 lookup needed for "CCCCNc1nc(N)nc2cnn(Cc3ccc(CN4CCC5(CNC5)C4)cc3)c(=O)c12" , thanks.
6.73

pEC50 lookup needed for "CCC[C@@H](CO)Nc1nc(N)nc2cnn(Cc3ccc(C(=O)N4CCN(C)CC4)cc3)c(=O)c12" , thanks.
7.39

pEC50 lookup needed for "CCCCNc1nc(N)nc2cnn(Cc3ccc(CN4CCCC4)c(F)c3)c(=O)c12" , thanks.
6.66

pEC50 lookup needed for "CCC[C@@H](C)Nc1nc(N)nc2cnn(Cc3ccc(CN(CCO)CCO)cc3)c(=O)c12" , thanks.
6.54

pEC50 lookup needed for "CCCCNc1nc(N)nc2cnn(Cc3ccc(CN4CCCC4)cc3OC)c(=O)c12" , thanks.
6.44

pEC50 lookup needed for "CCC[C@@H](C)Nc1nc(N)nc2cnn(Cc3ccc(CNCCO)cc3OC)c(=O)c12" , thanks.
6.95

pEC50 lookup needed for "COCCNc1nc(N)nc2cnn(Cc3ccc(CN4CCCC4)cc3)c(=O)c12" , thanks.
6.39

pEC50 lookup needed for "CCCCNc1nc(N)nc2cnn(Cc3ccc(C(=O)N4CCNCC4)cc3)c(=O)c12" , thanks.
6.99

pEC50 lookup needed for "CCCN[C@@H](C)c1ccc(Cn2ncc3nc(N)nc(N[C@H](C)CCC)c3c2=O)cc1" , thanks.
6.90

pEC50 lookup needed for "CCCCNc1nc(N)nc2cnn(Cc3ccc(CN(C)C)cc3)c(=O)c12" , thanks.
6.82

pEC50 lookup needed for CCCC(C)Nc1nc(N)nc2cnn(Cc3ccc(CN4CCCC4)cc3)c(=O)c12 (centres unmarked) , thanks.
6.97

pEC50 lookup needed for "CCC[C@@H](C)Nc1nc(N)nc2cnn(Cc3ccc(CN(C)CCO)cc3)c(=O)c12" , thanks.
7.14

pEC50 lookup needed for "CCC[C@@H](CO)Nc1nc(N)nc2cnn(Cc3ccc(C(=O)N4CCNCC4)cc3)c(=O)c12" , thanks.
7.14

pEC50 lookup needed for "CCCCNc1nc(N)nc2cnn(Cc3ccc(CN4CCCC4)cn3)c(=O)c12" , thanks.
6.23

pEC50 lookup needed for "CCC[C@@H](C)Nc1nc(N)nc2cnn(Cc3ccc(C(=O)N4CCNCC4)cc3)c(=O)c12" , thanks.
7.15

pEC50 lookup needed for "CCC[C@@H](C)Nc1nc(N)nc2cnn(Cc3ccc(CN4CCCC4)cc3)c(=O)c12" , thanks.
7.08

pEC50 lookup needed for "CCC[C@@H](CC)Nc1nc(N)nc2cnn(Cc3ccc(CN4CCCC4)cc3)c(=O)c12" , thanks.
6.27

pEC50 lookup needed for "CCCCNc1nc(N)nc2cnn(Cc3ccc(CN(CCO)CCO)cc3)c(=O)c12" , thanks.
6.65

pEC50 lookup needed for "CCC[C@@H](C)Nc1nc(N)nc2cnn(Cc3ccc(CN4CC5(COC5)C4)cc3)c(=O)c12" , thanks.
7.00

pEC50 lookup needed for "CCCCNc1nc(N)nc2cnn(Cc3ccc(CN4CCCC4)cc3)c(=O)c12" , thanks.
6.83

pEC50 lookup needed for "CCC[C@@H](C)Nc1nc(N)nc2cnn(Cc3ccc(C(=O)N4CCNCC4)cc3OC)c(=O)c12" , thanks.
6.71

====

Biological target: human TLR7 (Homo sapiens, UniProt Q9NYK1)
Sequence (Q9NYK1 27-1049): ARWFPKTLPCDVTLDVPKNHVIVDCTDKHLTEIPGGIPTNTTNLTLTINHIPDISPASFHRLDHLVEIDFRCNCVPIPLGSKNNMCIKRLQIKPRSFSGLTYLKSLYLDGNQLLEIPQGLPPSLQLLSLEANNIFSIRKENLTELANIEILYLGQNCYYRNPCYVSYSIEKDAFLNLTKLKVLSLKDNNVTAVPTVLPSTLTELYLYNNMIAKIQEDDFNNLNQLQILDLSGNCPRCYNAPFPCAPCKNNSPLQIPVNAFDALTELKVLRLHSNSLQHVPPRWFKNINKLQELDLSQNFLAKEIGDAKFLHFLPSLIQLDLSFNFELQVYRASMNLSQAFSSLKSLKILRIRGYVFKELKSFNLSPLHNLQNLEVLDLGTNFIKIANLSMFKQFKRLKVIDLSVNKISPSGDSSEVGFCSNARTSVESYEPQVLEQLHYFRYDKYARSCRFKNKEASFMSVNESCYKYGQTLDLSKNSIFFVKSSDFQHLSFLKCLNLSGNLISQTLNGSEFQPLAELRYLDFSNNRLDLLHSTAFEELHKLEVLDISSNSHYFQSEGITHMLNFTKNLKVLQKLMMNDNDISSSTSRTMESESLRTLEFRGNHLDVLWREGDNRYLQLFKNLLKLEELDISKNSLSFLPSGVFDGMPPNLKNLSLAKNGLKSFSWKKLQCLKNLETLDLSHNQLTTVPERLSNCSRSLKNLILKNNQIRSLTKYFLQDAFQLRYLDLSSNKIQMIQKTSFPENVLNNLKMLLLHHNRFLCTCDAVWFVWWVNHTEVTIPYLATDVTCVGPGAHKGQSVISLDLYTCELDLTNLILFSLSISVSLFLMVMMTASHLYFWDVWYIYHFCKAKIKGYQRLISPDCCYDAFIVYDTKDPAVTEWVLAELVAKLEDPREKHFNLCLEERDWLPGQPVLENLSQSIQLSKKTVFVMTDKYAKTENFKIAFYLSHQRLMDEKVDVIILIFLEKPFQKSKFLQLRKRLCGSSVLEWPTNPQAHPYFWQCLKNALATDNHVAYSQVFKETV
Experiment: HEK-Blue hTLR7 SEAP reporter gene agonism assay
Settings: HEK-Blue hTLR7 cells, SEAP (Quanti-blue, 650 nm), 16-22 hours incubation
Task for the reader: assign each of the following molecules its reported pEC50.
Scale note: pEC50 = -log10(concentration in M).

pEC50 lookup needed for "CCC[C@@H](C)Nc1nc(N)nc2cnn(Cc3ccc(C4CCN(C)CC4)cc3)c(=O)c12" , thanks.
6.39

pEC50 lookup needed for "CCC[C@@H](C)Nc1nc(N)nc2cnn(Cc3ccc(OCCNC)nc3)c(=O)c12" , thanks.
6.45

pEC50 lookup needed for "CCC[C@@H](C)Nc1nc(N)nc2cnn(Cc3ccc(CN4CCCC4)cc3)c(=O)c12" , thanks.
6.05

pEC50 lookup needed for "CCC[C@@H](C)Nc1nc(N)nc2cnn(Cc3ccc(CN4CCNCC4)cc3)c(=O)c12" , thanks.
6.11
